// Inhibition zones size, Escherichia coli K12 407 lookup, one value per entry
System: Escherichia coli K12 407
method_summary: Antimicrobial assay, agar/disc diffusion, E. coli
Type: cell-based
experimental_setup: 6 μL of 20 μM solution on 6 mm paper disc, 24 h
Non-standard residues stand in square brackets, D forms with d. Residues, ends and D or L forms follow the SMILES beside them. βAla = NCCC(=O)O
parameter: Inhibition zones size, Escherichia coli K12 407 (mm)

compound | data_value
CC(C)C[C@H](NC(=O)[C@H](CCCCN)NC(=O)/C=C/c1ccc(O)c(O)c1)C(=O)N[C@@H](C)C(=O)N[C@@H](CCCCN)C(=O)N[C@@H](CC(C)C)C(=O)N[C@@H](C)C(=O)N[C@@H](CCCCN)C(=O)N[C@@H](CCCCN)C(=O)N[C@@H](CC(C)C)C(=O)N[C@@H](C)C(=O)N[C@@H](CCCCN)C(=O)N[C@@H](CC(C)C)C(=O)N[C@@H](C)C(=O)N[C@@H](CCCCN)C(N)=O | 13.33
CC(C)C[C@H](NC(=O)[C@H](CCCCN)NC(=O)CCNC(=O)[C@H](CC(C)C)NC(=O)[C@H](CCCCN)NC(=O)[C@H](CCCCN)NC(=O)CCNC(=O)[C@H](CC(C)C)NC(=O)[C@H](CCCCN)NC(=O)CCNC(=O)[C@H](CC(C)C)NC(=O)[C@@H](N)CCCCN)C(=O)NCCC(=O)N[C@@H](CCCCN)C(N)=O [Si5, (KLβ-AKLβ-AK)2-NH2] (H-KL[βAla]KL[βAla]KKL[βAla]KL[βAla]K-NH2) | 11.83
CC(C)C[C@H](NC(=O)[C@H](CCCCN)NC(=O)CN1C(=O)c2cccc3cccc(c23)C1=O)C(=O)N[C@@H](C)C(=O)N[C@@H](CCCCN)C(=O)N[C@@H](CC(C)C)C(=O)N[C@@H](C)C(=O)N[C@@H](CCCCN)C(=O)N[C@@H](CCCCN)C(=O)N[C@@H](CC(C)C)C(=O)N[C@@H](C)C(=O)N[C@@H](CCCCN)C(=O)N[C@@H](CC(C)C)C(=O)N[C@@H](C)C(=O)N[C@@H](CCCCN)C(N)=O | 11.33
